Test: In vitro clearance
Format: in vitro ADME, rat
Conditions: rat

{"columns": ["molecule", "CLint scaled"],
 "data": [
  ["O=C(Nc1ccc2scnc2c1)C1CCN(S(=O)(=O)c2ccc3ncsc3c2)CC1 [29a]", "38 mL/min/kg"]
]}

====

Recorded Predicted CLhep by entry
Assay: In vitro clearance
Type: in vitro ADME, rat
Settings: rat (r)

{"columns": ["compound", "Predicted CLhep"],
 "data": [
  ["O=C(Nc1ccc2scnc2c1)C1CCN(S(=O)(=O)c2cccnc2)CC1 [29e]", "52 mL/min/kg"],
  ["O=C(Nc1ccc2snnc2c1)C1CCN(S(=O)(=O)c2ccc3c(c2)CCO3)CC1 [28g]", "64 mL/min/kg"],
  ["C[C@H]1CN(S(=O)(=O)c2ccc3c(c2)CCO3)CC[C@@H]1C(=O)Nc1ccc2scnc2c1 (racemic) [(rac)-23]", "61 mL/min/kg"],
  ["C[C@@H]1C[C@@H](C(=O)Nc2ccc3scnc3c2)CCN1S(=O)(=O)c1ccc2c(c1)CCO2 (racemic) [(rac)-25]", "62 mL/min/kg"],
  ["Cc1ccc(S(=O)(=O)N2CCC(C(=O)Nc3ccc4scnc4c3)CC2)cn1 [29d]", "27 mL/min/kg"],
  ["Cc1ncc(S(=O)(=O)N2CC[C@H](C(=O)Nc3ccc4scnc4c3)[C@@H](F)C2)s1 (racemic) [(rac)-30c]", "37 mL/min/kg"],
  ["Cc1nc2cc(NC(=O)C3CCN(S(=O)(=O)c4ccc5c(c4)CCO5)CC3)ccc2s1 [compound 20]", "60 mL/min/kg"],
  ["O=C(Nc1ccc2cccnc2c1)C1CCN(S(=O)(=O)c2ccc3c(c2)CCO3)CC1 [28f]", "64 mL/min/kg"],
  ["C[C@@H]1C[C@H](C(=O)Nc2ccc3scnc3c2)CCN1S(=O)(=O)c1ccc2c(c1)CCO2 (racemic) [(rac)-24]", "62 mL/min/kg"],
  ["C[C@@H]1CN(S(=O)(=O)c2ccc3c(c2)CCO3)CC[C@@H]1C(=O)Nc1ccc2scnc2c1 (racemic) [(rac)-22]", "62 mL/min/kg"],
  ["Cn1ncc(S(=O)(=O)N2CC[C@H](C(=O)Nc3ccc4scnc4c3)[C@@H](F)C2)c1Cl (racemic) [(rac)-30b]", "29 mL/min/kg"],
  ["O=C(Nc1ccc2scnc2c1)C1CCN(S(=O)(=O)c2ccc3ncccc3c2)CC1 [29b]", "53 mL/min/kg"],
  ["CC1COc2ccc(S(=O)(=O)N3CCC(C(=O)Nc4ccc5scnc5c4)CC3)cc21 (racemic) [(rac)-26]", "66 mL/min/kg"],
  ["Cc1nn(C)cc1S(=O)(=O)N1CC[C@H](C(=O)Nc2ccc3scnc3c2)[C@@H](F)C1 (racemic) [(rac)-30a]", "55 mL/min/kg"],
  ["Cc1nn(C)cc1S(=O)(=O)N1CCC(C(=O)Nc2ccc3scnc3c2)CC1 [29f]", "28 mL/min/kg"],
  ["O=C(Nc1ccc2scnc2c1)C1CCN(S(=O)(=O)c2ccc3ncsc3c2)CC1 [29a]", "38 mL/min/kg"],
  ["O=C(Nc1ccc2scnc2c1)C1CCN(S(=O)(=O)c2ccc(Cl)nc2)CC1 [29c]", "33 mL/min/kg"]
]}
